Where these numbers come from: ChEMBL document CHEMBL4387724

system: A-431; assay: Cytotoxicity against human A431 cells assessed as reduction in cell growth at 30 uM incubated for 72 hrs by MTT assay relative to control; assay type: functional; conditions: A-431, 72 h, read-out: GI
Readout kind: inhibition of growth at 30 µM (%)
// note: answer is a bare numeric in %

Query (molecule): Cc1cccc(/C(N)=N/NC(=S)N2CCCCC2)n1 ; field requested: inhibition of growth at 30 µM
65.2

Query (molecule): Cc1cccc(/C(N)=N/NC(=S)N2CCCCCC2)n1 ; field requested: inhibition of growth at 30 µM
63.5

Query (molecule): N/C(=N\NC(=S)N1CCOCC1)c1ccc(F)cn1 ; field requested: inhibition of growth at 30 µM
82.3

Query (molecule): Cc1ccnc(/C(N)=N/NC(=S)N2CCCCCC2)c1 ; field requested: inhibition of growth at 30 µM
63.4

Query (molecule): Cc1cccc(/C(N)=N/NC(=S)N2CCCC2)n1 ; field requested: inhibition of growth at 30 µM
72.2

Query (molecule): Cc1ccnc(/C(N)=N/NC(=S)N2CCSCC2)c1 ; field requested: inhibition of growth at 30 µM
75.3

Query (molecule): Cc1cccc(/C(N)=N/NC(=S)N2CCN(c3ccccn3)CC2)n1 ; field requested: inhibition of growth at 30 µM
57.4

Query (molecule): Cc1ccnc(/C(N)=N/NC(=S)N2CCCC2)c1 ; field requested: inhibition of growth at 30 µM
84.2

Query (molecule): N/C(=N\NC(=S)N1CCCC1)c1ccc(F)cn1 ; field requested: inhibition of growth at 30 µM
83.3

Query (molecule): N/C(=N\NC(=S)N1CCCCC1)c1ccccn1 ; field requested: inhibition of growth at 30 µM
79.7

Query (molecule): N/C(=N\NC(=S)N1CCCC1)c1ccccn1 ; field requested: inhibition of growth at 30 µM
85.2

* * *

test system: A-431; experiment: Cytotoxicity against human A431 cells assessed as reduction in cell growth at 100 uM incubated for 72 hrs by MTT assay relative to control; format: functional; details: A-431, 72 h, read-out: GI
I'd be grateful if you could share measured inhibition of growth at 100 µM for these entries.
// note: answer is a bare numeric in %

Query (compound): N/C(=N\NC(=S)N1CCSCC1)c1ccc(F)cn1 ; field requested: inhibition of growth at 100 µM
86.6

Query (compound): N/C(=N\NC(=S)N1CCCCC1)c1ccccn1 ; field requested: inhibition of growth at 100 µM
85.6

Query (compound): Cc1cccc(/C(N)=N/NC(=S)N2CCCCCC2)n1 ; field requested: inhibition of growth at 100 µM
76.7

Query (compound): N/C(=N\NC(=S)N1CCN(c2ccccn2)CC1)c1ccccn1 ; field requested: inhibition of growth at 100 µM
91.9

Query (compound): Cc1ccnc(/C(N)=N/NC(=S)N2CCN(c3ccccn3)CC2)c1 ; field requested: inhibition of growth at 100 µM
75.5

Query (compound): Cc1cccc(/C(N)=N/NC(=S)N2CCCC2)n1 ; field requested: inhibition of growth at 100 µM
86.8

Query (compound): Cc1ccnc(/C(N)=N/NC(=S)N2CCSCC2)c1 ; field requested: inhibition of growth at 100 µM
79.6

Query (compound): Cc1ccnc(/C(N)=N/NC(=S)N2CCCC2)c1 ; field requested: inhibition of growth at 100 µM
86.9

Query (compound): Cc1cccc(/C(N)=N/NC(=S)N2CCCCC2)n1 ; field requested: inhibition of growth at 100 µM
77.5

Query (compound): Cc1ccnc(/C(N)=N/NC(=S)N2CCCCCC2)c1 ; field requested: inhibition of growth at 100 µM
71

Query (compound): Cc1cccc(/C(N)=N/NC(=S)N2CCOCC2)n1 ; field requested: inhibition of growth at 100 µM
84.8
